- test-summary: in vitro
- measurement-parameters: human, hela cells, % viability
endpoint-name: viability at 28.5 h, 10 µM (%)
Numbers only, in %.

C[C@@H]1CN2CCCC2CN1Cc1cccs1 (stereo partly shown) | 85.6

Look up viability at 28.5 h, 10 µM for the entries below, preserving their order.
1. COc1cccc(C(NC(=O)C2COc3ccc(OC)cc3C2)c2ccccc2)c1 (stereo not shown)
2. COc1cccc([C@H]2CN(C(=O)c3ccccc3)[C@@H]3CCN(Cc4ccccc4C)C[C@H]23)c1
3. CN(C)Cc1ccccc1-n1ncc(-c2ccc(Br)cc2F)n1
4. Cn1nc(C2CCN(C(=O)Cc3ccsc3)CC2)c2cccnc21
5. Cc1cc(NC(=O)C(C)Oc2ccccc2)nc2c1c(=O)oc1ccccc12 (stereo not shown)
6. O=C(CSc1nc(-c2ccc(F)cc2)cc(C(F)(F)F)n1)NCCN1CCOCC1
7. CC(C)NC(=O)NC[C@H]1C[C@@H]2CC[N@]1C[C@@H]2CN1CCN(c2ncccn2)CC1
8. OC(c1ccncc1)C(O)c1ccncc1 (stereo not shown)

97.7
98.6
90.9
101
95.8
99.6
89.7
87.1
